- Measurement Target: BRAF V600E (Homo sapiens, UniProt P15056+Q96SW2, V600E)
- Construct: knock-in of the HiBiT tag to the endogenous BRAF V600E locus; host or cells: A375.10 (A375 clonal line, CRISPR HiBiT knock-in at the endogenous BRAF V600E locus)
- Sequence (P15056 whole entry V600E): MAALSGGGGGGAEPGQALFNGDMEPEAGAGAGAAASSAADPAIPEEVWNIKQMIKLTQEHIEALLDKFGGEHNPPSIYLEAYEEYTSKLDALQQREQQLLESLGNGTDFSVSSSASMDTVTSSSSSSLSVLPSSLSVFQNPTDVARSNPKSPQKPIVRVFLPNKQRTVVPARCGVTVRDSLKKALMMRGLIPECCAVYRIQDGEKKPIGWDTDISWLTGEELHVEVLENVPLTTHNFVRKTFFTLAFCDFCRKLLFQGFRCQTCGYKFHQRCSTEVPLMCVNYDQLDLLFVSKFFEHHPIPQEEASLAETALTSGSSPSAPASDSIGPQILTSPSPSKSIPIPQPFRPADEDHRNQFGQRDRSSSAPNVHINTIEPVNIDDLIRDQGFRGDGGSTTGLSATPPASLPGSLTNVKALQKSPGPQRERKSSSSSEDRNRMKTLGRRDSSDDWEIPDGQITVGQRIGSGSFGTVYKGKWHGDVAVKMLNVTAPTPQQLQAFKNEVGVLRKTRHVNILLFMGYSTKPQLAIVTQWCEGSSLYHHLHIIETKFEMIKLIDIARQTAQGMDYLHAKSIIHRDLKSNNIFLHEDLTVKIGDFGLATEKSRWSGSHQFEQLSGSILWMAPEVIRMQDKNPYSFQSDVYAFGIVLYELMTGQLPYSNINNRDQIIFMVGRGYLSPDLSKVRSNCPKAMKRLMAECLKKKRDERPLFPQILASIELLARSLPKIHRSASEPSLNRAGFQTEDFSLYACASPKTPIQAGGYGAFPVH
- Sequence (Q96SW2 whole entry): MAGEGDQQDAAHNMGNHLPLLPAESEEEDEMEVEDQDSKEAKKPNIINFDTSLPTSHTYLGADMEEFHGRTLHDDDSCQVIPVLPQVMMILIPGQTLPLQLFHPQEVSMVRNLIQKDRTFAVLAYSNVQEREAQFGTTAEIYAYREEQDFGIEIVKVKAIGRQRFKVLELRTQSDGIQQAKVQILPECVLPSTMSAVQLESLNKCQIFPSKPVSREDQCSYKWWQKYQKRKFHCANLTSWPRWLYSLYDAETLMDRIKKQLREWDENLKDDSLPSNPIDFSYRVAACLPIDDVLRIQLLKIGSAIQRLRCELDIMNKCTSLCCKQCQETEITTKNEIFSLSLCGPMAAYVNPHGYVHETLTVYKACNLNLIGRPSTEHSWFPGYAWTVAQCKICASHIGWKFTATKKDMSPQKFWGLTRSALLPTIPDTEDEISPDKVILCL
- Sequence (Q16531 whole entry partner): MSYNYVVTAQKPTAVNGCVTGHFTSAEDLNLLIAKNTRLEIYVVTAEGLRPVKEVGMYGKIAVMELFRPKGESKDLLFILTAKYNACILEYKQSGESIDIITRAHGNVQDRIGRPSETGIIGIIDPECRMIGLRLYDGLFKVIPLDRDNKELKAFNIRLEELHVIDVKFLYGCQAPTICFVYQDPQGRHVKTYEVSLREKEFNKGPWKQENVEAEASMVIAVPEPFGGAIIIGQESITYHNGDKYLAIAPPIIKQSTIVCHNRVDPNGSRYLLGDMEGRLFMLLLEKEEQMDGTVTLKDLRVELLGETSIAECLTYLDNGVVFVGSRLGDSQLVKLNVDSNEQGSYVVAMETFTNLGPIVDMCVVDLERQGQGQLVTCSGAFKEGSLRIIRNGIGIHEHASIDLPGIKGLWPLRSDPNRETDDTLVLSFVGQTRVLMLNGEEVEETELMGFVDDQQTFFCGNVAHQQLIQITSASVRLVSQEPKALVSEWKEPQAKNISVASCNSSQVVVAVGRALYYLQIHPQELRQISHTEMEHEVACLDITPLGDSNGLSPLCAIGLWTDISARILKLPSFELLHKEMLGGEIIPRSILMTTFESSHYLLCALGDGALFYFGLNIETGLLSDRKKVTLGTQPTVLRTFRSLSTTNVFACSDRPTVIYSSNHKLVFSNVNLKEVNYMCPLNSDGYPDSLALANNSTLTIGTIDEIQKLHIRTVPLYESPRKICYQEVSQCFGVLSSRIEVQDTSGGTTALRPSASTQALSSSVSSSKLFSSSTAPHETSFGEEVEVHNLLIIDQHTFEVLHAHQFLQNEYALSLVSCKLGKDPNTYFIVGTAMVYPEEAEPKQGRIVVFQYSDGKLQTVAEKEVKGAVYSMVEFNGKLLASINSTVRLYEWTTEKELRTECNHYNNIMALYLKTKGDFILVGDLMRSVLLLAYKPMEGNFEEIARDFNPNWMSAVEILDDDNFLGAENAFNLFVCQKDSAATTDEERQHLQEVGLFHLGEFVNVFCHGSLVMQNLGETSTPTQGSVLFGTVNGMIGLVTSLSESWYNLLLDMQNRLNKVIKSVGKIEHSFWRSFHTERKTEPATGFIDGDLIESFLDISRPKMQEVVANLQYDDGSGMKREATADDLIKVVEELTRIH
- Procedure Text: BRAF V600E HiBiT Degradation Assay
- Format: cell-based
- Assay Setup: A375.10 cells, BRAF V600E, 2 hours; residual protein remaining; read-out: HiBiT-Degradation A375.10 BRAF 2 hours Emax
The following compounds are shown together with reported Emax values.

Worked cases, answers included:
Compound	Observed Measurement
CCN(C)S(=O)(=O)Nc1ccc(F)c(Oc2ccc3ncn(C4CC5(CC(N6CC[C@H](c7cc8c(cc7F)c(N7CCC(=O)NC7=O)nn8C)C(F)(F)C6)C5)C4)c(=O)c3c2)c1C#N (stereo partly drawn)	< 50%
CCN(C)S(=O)(=O)Nc1ccc(F)c(Oc2ccc3ncn([C@H]4COC5(CCC(N6CCN(c7ccc(NC8CCC(=O)NC8=O)cc7F)CC6)CC5)C4)c(=O)c3c2)c1C#N (stereo partly drawn)	50 to 90%

Below: the item to evaluate.
q: I am curious: what Emax value has been reported for Cn1nc(N2CCC(=O)NC2=O)c2cc(F)c(N3CC4(CC(N5CCC6(CC5)CC(n5cnc7ccc(Oc8c(F)ccc(NS(=O)(=O)C9CCOCC9)c8C#N)cc7c5=O)C6)C4)C3)cc21 ?
a: < 50%

###

- Measurement Target: BRAF V600E (Homo sapiens, UniProt P15056+Q96SW2, V600E)
- Construct: knock-in of the HiBiT tag to the endogenous BRAF V600E locus; host or cells: A375.10 (A375 clonal line, CRISPR HiBiT knock-in at the endogenous BRAF V600E locus)
- Procedure Text: BRAF V600E HiBiT Degradation Assay
- Type: cell-based
- Assay Setup: A375.10 cells, BRAF V600E, 2 hours; residual protein remaining
Quantity Name: HiBiT-Degradation A375.10 BRAF 2 hours Emax

Worked cases, answers included:
Compound	Observed Measurement
CN(CCO)S(=O)(=O)Nc1ccc(F)c(Oc2ccc3ncn(C4CC5(CCN(C6CCC(c7ccc(NC8CCC(=O)NC8=O)cc7F)CC6)CC5)C4)c(=O)c3c2)c1C#N (single isomer, unassigned)	** (<90% and >50%)
CCN(C)S(=O)(=O)Nc1ccc(F)c(Nc2ccc3ncn([C@H]4COC5(CCN(C6CCC(c7ccc(NC8CCC(=O)NC8=O)cc7F)CC6)CC5)C4)c(=O)c3c2)c1C#N (single isomer, unassigned)	*** (<=50%)
CO[C@@H]1CCN(S(=O)(=O)Nc2ccc(F)c(Oc3ccc4ncn(C5CC6(CCN(C7CCC(c8cc9c(cc8F)c(N8CCC(=O)NC8=O)nn9C)CC7)CC6)C5)c(=O)c4c3)c2C#N)C1 (single isomer, unassigned)	*** (<=50%)
CC(C)S(=O)(=O)Nc1ccc(F)c(Oc2ccc3ncn(C4CC5(CCN(C6CCC(c7cc8c(cc7F)c(N7CCC(=O)NC7=O)nn8C)CC6)CC5)C4)c(=O)c3c2)c1C#N (single isomer, unassigned)	*** (<=50%)
CCN(C)S(=O)(=O)Nc1ccc(F)c(Oc2ccc3ncc(CCC4CCN(C5CCC(c6cc7c(cc6F)c(N6CCC(=O)NC6=O)nn7C)CC5)CC4)nc3c2)c1C#N (single isomer, unassigned)	** (<90% and >50%)

q: I am curious: what HiBiT-Degradation A375.10 BRAF 2 hours Emax value has been reported for CCN(C)S(=O)(=O)Nc1ccc(F)c(Oc2ccc3ncn([C@@H]4COC5(C4)CN(C4CCC(c6cc7c(cc6F)c(N6CCC(=O)NC6=O)nn7C)CC4)C5)c(=O)c3c2)c1C#N (single isomer, unassigned) ?
a: *** (<=50%)

q: Item: Cn1nc(N2CCC(=O)NC2=O)c2cc(F)c(C3CCC(N4CCC5(CC4)CC(n4cnc6ccc(Oc7c(F)ccc(NS(=O)(=O)N8CC[C@@H](F)C8)c7C#N)cc6c4=O)C5)CC3)cc21 (single isomer, unassigned)
a: *** (<=50%)

q: Item: CCN(C)S(=O)(=O)Nc1ccc(F)c(Oc2ccc3ncn(C4CC5(C4)CN(C4CCC(c6cc7c(cc6F)c(N6CCC(=O)NC6=O)nn7C)CC4F)C5)c(=O)c3c2)c1C#N (single isomer, unassigned)
a: *** (<=50%)
